test system: IGR-1; experiment: Antiproliferative activity against human IGR-1 cells after 48 hrs by MTT assay; type: functional, cell-based; details: IGR-1, 48 h
EXPERIMENTAL_ENDPOINT: IC50 (µg/mL)
Give a bare numeral; the unit µg/mL is implied.

Measured IC50 of C[C@@H]1CC[C@@]2(OC1)O[C@H]1C[C@H]3[C@@H]4C[C@@H](O)[C@H]5C[C@@H](O)C(=O)C[C@]5(C)[C@H]4CC[C@]3(C)[C@H]1[C@@H]2C [PORRIGENIN B] : 330

Measured IC50 of Sc1ncnc2nc[nH]c12 [MERCAPTOPURINE ANHYDROUS] : 12.3

Measured IC50 of C[C@@H]1CC[C@@]2(OC1)O[C@H]1C[C@H]3[C@@H]4C[C@@H](O)[C@H]5C[C@@H](O)[C@@H](O)C[C@]5(C)[C@H]4CC[C@]3(C)[C@H]1[C@@H]2C [PORRIGENIN A] : 471

Measured IC50 of C[C@@H]1CC[C@@]2(OC1)O[C@H]1C[C@H]3[C@@H]4C[C@@H](O)[C@H]5C[C@@H](O)[C@H](O)C[C@]5(C)[C@H]4CC[C@]3(C)[C@H]1[C@@H]2C [AGIGENIN] : 627

----------
test system: P388; experiment: Cytotoxicity against mouse P388 cells after 24 hrs by MTT assay; format: functional, cell-based; conditions: P388, 24 h
EXPERIMENTAL_ENDPOINT: IC50 (µg/mL)
Give a bare numeral; the unit µg/mL is implied.

Measured IC50 of C[C@@H]1CC[C@@]2(OC1)O[C@H]1C[C@H]3[C@@H]4C[C@@H](O)[C@H]5C[C@@H](O)[C@H](O)C[C@]5(C)[C@H]4CC[C@]3(C)[C@H]1[C@@H]2C [AGIGENIN] : 609

Measured IC50 of C[C@@H]1CC[C@@]2(OC1)O[C@H]1C[C@H]3[C@@H]4C[C@@H](O)[C@H]5C[C@@H](O)C(=O)C[C@]5(C)[C@H]4CC[C@]3(C)[C@H]1[C@@H]2C [PORRIGENIN B] : 837

Measured IC50 of Sc1ncnc2nc[nH]c12 [MERCAPTOPURINE ANHYDROUS] : 37

Measured IC50 of C[C@@H]1CC[C@@]2(OC1)O[C@H]1C[C@H]3[C@@H]4C[C@@H](O)[C@H]5C[C@@H](O)[C@@H](O)C[C@]5(C)[C@H]4CC[C@]3(C)[C@H]1[C@@H]2C [PORRIGENIN A] : 617
